Sourced from ChEMBL document CHEMBL2202986

assay: AUC (0 to infinity) in mouse at 150 mg/kg, po; assay type: ADME, organism-based; parameters: dose 150 mg/kg, route oral, time infinity; details: plasma
MEASURED_PROPERTY: AUC(0-inf) (ng·h/mL)
// units = ng·h/mL; emit number, no label

[[record]]
compound = "CC1=C2CC[C@@](C)(O)[C@@H]2[C@H]2OC(=O)[C@@H](CN(C)C)[C@@H]2CC1.Cl [DIMETHYLAMINOMICHELIOLIDE HYDROCHLORIDE]"
measurement_unit = "ng·h/mL"
reported_measurement = 50300


--- query ---
Exam item: Retrieve AUC(0-inf) measured for C=C1C(=O)O[C@H]2[C@H]1CCC(C)=C1CC[C@@](C)(O)[C@@H]12 [MICHELIOLIDE] and print it.
Marked response: 6720

* * *

assay: Mean retention time (0 to t) in mouse at 150 mg/kg, po; format: ADME, organism-based; parameters: dose 150 mg/kg, route oral; settings: in vivo
MEASURED_PROPERTY: MRT last (h)
// units = h; emit number, no label

[[record]]
molecule = "CC1=C2CC[C@@](C)(O)[C@@H]2[C@H]2OC(=O)[C@@H](CN(C)C)[C@@H]2CC1.Cl [DIMETHYLAMINOMICHELIOLIDE HYDROCHLORIDE]"
reported_measurement = 8.85


--- query ---
Exam item: Retrieve MRT last measured for C=C1C(=O)O[C@H]2[C@H]1CCC(C)=C1CC[C@@](C)(O)[C@@H]12 [MICHELIOLIDE] and print it.
Marked response: 7.59

* * *

experiment: Cmax in mouse at 100 mg/kg, iv; assay type: ADME, organism-based; set-up: dose 100 mg/kg, route intravenous; conditions: in vivo
Overview of recorded Cmax for various compounds
// units = µg/mL; emit number, no label

[[record]]
compound = "CC1=C2CC[C@@](C)(O)[C@@H]2[C@H]2OC(=O)[C@@H](CN(C)C)[C@@H]2CC1.Cl [DIMETHYLAMINOMICHELIOLIDE HYDROCHLORIDE]"
reported_measurement = 92.9


--- query ---
Exam item: Retrieve Cmax measured for C=C1C(=O)O[C@H]2[C@H]1CCC(C)=C1CC[C@@](C)(O)[C@@H]12 [MICHELIOLIDE] and print it.
Marked response: 10.7
